Reported pIC50 by item:
- Tested on: IL-17A-induced G-CSF production in human normal keratinocyte (NHK)
- experimental_details: NHK Assay: IL-17A-induced G-CSF production in human normal keratinocytes
- Assay type: cell-based
- particulars: adult normal human keratinocytes, IL-17A 5 ng/mL, 24 h, simple average if tested more than once
pIC50: −log10 of the molar value.
measurement_name: pIC50

>  <molecule>
Cc1nonc1C(=O)N[C@H](c1cn2ncc([C@H](NC(=O)C(F)CC3CC3)C3CC3)cc2n1)C1CCC(F)(F)CC1 (single isomer, unassigned) [Example 344]

>  <endpoint_result>
6.64

$$$$
>  <molecule>
O=C(CC1CC(F)(F)C1)NC(c1cnn2cc([C@@H](NC(=O)c3nonc3C3CC3)C3CCC(F)(F)CC3)nc2c1)C(F)F (single isomer, unassigned) [Example 518]

>  <endpoint_result>
5.54

$$$$
>  <molecule>
CC(C)n1nccc1C(=O)N[C@H](c1cn2ncc(C(NC(=O)CC3(C(F)(F)F)CC3)C3(C#N)CC3)cc2n1)C1CCC(F)(F)CC1 (single isomer, unassigned) [Example 428]

>  <endpoint_result>
6.92

$$$$
>  <molecule>
CC(C)n1nccc1C(=O)N[C@H](c1cn2ncc(C(NC(=O)CC3CC(F)(F)C3)C(C)(C)O)cc2n1)C1CCC(F)(F)CC1 (single isomer, unassigned) [Example 442]

>  <endpoint_result>
6.22

$$$$
>  <molecule>
[2H]C([2H])([2H])C([2H])([2H])n1nccc1C(=O)N[C@H](c1cn2ncc(C(COCC)NC(=O)CC3CC(F)(F)C3)cc2n1)C1CCC(F)(F)CC1 (single isomer, unassigned) [Example 530]

>  <endpoint_result>
5.34

$$$$

###

- target_under_test: IL-17A(FLAG-Tagged): IL-17RA(His-Tagged) (Homo sapiens, UniProt Q16552, K93Q)
- Sequence (Q16552 with tags, fused parts or gaps K93Q): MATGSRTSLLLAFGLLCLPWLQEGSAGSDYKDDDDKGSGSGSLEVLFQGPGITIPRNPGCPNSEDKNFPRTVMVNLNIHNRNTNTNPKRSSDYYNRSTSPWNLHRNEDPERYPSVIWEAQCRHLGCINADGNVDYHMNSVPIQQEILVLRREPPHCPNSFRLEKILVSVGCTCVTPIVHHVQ
- experimental_details: IL-17A(FLAG-Tagged): IL-17RA(His-Tagged) Binding Disruption Eu-HTRF Assay
- particulars: IL-17A/IL-17RA binding disruption, simple average if tested more than once
pIC50: −log10 of the molar value.
Recorded pIC50 for the following molecules
measurement_name: pIC50

>  <molecule>
CC(C)n1ncc(F)c1C(=O)N[C@H](c1cn2ncc([C@H](NC(=O)CCC(F)(F)F)C3CC3)cc2n1)C1CCC(F)(F)CC1

>  <endpoint_result>
7.28

$$$$
>  <molecule>
CC(C)n1nccc1C(=O)N[C@H](c1cn2ncc([C@@H](NC(=O)C[C@@H]3CC3(F)F)C3CC3)cc2n1)C1CCC(F)(F)CC1 (single isomer, unassigned)

>  <endpoint_result>
6.14

$$$$
>  <molecule>
O=C(CC1CC(F)(F)C1)N[C@@H](c1cnn2cc([C@@H](NC(=O)c3conc3C3CC3)C3CCC(F)(F)CC3)nc2c1)C1CC1

>  <endpoint_result>
7.43

$$$$
>  <molecule>
O=C(CCC(F)(F)F)N[C@@H](c1cnn2cc([C@@H](NC(=O)[C@@H]3C[C@H]3CF)C3CCC(F)(F)CC3)nc2c1)C1CC1 (relative stereo)

>  <endpoint_result>
5.38

$$$$
>  <molecule>
Cc1cncc(C(=O)N[C@H](c2cn3ncc([C@H](NC(=O)CCC(F)(F)F)C4CC4)cc3n2)C2CCC(F)(F)CC2)n1

>  <endpoint_result>
4.82

$$$$
>  <molecule>
Cc1nocc1C(=O)N[C@H](c1cn2ncc([C@H](NC(=O)CC(C)C(F)(F)F)C3CC3)cc2n1)C1CCC(F)(F)CC1 (single isomer, unassigned) [Example 123]

>  <endpoint_result>
7.26

$$$$
